The origin of these recorded values is patent US20240199623A1.

assay_system: Human recombinant PDE4A1A (Homo sapiens, UniProt P27815)
Construct: purchased BPS Bioscience; host or cells: insect Sf9 cells
Sequence (P27815 1-647 isoform P27815-4): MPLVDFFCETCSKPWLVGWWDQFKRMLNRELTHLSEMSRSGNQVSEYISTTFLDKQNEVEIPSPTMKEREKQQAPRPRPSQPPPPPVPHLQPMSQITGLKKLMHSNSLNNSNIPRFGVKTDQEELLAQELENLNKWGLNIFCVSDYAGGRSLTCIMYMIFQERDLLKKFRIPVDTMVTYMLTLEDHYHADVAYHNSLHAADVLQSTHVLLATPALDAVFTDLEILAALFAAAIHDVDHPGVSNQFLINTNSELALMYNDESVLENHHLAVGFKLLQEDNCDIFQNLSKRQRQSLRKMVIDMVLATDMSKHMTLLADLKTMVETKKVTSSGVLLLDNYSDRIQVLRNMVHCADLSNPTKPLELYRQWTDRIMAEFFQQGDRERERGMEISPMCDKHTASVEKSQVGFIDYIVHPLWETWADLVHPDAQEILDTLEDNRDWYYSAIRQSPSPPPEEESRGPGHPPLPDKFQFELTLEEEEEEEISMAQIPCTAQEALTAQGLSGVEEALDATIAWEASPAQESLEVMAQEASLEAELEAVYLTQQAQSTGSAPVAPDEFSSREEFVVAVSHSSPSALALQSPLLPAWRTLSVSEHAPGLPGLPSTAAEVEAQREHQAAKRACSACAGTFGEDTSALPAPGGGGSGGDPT
run_description: Human phosphodiesterase 4 (PDE4) inhibition, PDE4A1A
Type: biochemical
study_conditions: read-out: % inhibition range at 10 uM PDE4A1A; 10 uM test compound
measurement_kind: inhibition at 10 µM

>>> result("COC(=O)c1ccccc1NC(=O)c1cc2nccc(-c3ccc(OC)c(OC)c3)n2n1")
"< 50%"
>>> result("CCOc1ccc(NC(=O)c2cc3nccc(-c4ccc(OC)nc4)n3n2)cc1")
"< 50%"
>>> result("COc1ccc(-c2ccnc3cc(C(=O)NC45CCC(C(=O)N6CCN(C)CC6)(CC4)CC5)nn23)cc1OC")
"> 80%"
>>> result("COc1ccc(-c2ccnc3cc(C(=O)N[C@H]4CC[C@H](C(=O)OC)CC4)nn23)cc1OC")
"> 80%"

Quick batch: inhibition at 10 µM for everything below.
1. COc1ccc(-c2ccnc3cc(C(=O)N4CCN(C(=O)c5ccccc5)[C@@H](C)C4)nn23)cc1OC
2. COc1ccc(-c2ccnc3cc(C(=O)Nc4ccc(C(=O)N5CCN(C)CC5)cc4)nn23)cc1OC

[reply]
1: > 80%; 2: > 80%

Quick batch: inhibition at 10 µM for everything below.
1. COc1ccc(-c2ccnc3cc(C(=O)Nc4ccc(N)cc4)nn23)cc1OC
2. COC(=O)c1ccc(NC(=O)c2cc3nccc(-c4ccc(OC)c(OC)c4)n3n2)c(F)c1

[reply]
1: > 80%; 2: > 80%

====

Give EC50 for every item shown.
assay_system: human wild type-CFTR (Homo sapiens, UniProt P13569)
Sequence (P13569 whole entry): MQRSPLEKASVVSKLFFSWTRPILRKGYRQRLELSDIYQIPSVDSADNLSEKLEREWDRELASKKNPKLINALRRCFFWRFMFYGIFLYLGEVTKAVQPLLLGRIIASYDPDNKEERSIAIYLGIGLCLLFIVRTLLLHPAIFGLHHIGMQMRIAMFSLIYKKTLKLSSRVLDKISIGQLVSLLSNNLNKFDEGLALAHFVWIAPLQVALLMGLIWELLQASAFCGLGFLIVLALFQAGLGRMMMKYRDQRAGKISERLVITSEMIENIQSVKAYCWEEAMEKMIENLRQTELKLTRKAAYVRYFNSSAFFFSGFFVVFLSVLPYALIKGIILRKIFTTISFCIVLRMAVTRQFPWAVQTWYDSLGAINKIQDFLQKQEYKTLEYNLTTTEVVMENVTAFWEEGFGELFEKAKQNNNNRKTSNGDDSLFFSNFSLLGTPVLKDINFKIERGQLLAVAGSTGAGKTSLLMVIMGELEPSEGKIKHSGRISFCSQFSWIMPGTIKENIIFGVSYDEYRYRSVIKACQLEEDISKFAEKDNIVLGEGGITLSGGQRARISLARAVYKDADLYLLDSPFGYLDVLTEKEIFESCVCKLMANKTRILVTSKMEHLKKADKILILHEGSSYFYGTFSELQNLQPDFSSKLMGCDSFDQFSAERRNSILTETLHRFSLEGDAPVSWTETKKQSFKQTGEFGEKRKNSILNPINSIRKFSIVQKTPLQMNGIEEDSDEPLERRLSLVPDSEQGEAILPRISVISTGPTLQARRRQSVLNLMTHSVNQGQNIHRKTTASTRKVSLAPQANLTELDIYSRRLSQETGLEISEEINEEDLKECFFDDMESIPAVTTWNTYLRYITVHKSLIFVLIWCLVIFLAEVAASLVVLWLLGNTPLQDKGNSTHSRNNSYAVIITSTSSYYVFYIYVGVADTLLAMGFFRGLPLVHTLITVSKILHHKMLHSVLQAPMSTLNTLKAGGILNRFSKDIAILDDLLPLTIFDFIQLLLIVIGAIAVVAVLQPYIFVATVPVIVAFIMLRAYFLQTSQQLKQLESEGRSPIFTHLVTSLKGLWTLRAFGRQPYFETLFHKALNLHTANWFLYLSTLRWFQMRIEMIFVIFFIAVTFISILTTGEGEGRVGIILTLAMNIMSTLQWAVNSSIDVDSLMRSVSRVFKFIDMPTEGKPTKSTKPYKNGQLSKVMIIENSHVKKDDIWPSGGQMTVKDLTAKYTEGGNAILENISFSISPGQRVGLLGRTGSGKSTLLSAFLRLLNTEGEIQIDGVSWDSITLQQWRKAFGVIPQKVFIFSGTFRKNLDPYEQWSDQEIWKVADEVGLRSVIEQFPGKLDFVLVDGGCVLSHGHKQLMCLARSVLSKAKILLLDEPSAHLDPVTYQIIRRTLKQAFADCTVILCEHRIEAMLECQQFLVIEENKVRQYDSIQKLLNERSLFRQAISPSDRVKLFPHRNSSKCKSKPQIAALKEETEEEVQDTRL
run_description: Short-circuit current measurement
Format: cell-based
Design: expressed in transfected cells
study_conditions: FRT cells expressing human wild type-CFTR; Forskolin 20 μM signal used as 100% activity; read-out: Short-circuit current measurement (EC50) Concentration range

Please review the entries below; each comes with its answer.
>>> result("COc1ccc(-c2ccnc3cc(C(=O)Nc4ccc(C(=O)N5CCN(C)CC5)cc4)nn23)cc1OC [Compound 97]")
"200 to 2000 nM"
>>> result("COC(=O)C(=Cc1ccccc1)NC(=O)c1cc2nccc(-c3ccc(OC)c(OC)c3)n2n1 [Compound 105]")
"200 to 2000 nM"

Quick batch: EC50 for everything below.
1. COc1ccc(-c2ccnc3cc(C(=O)Nc4ccc(C(=O)N[C@H](C(=O)N5CCN(C)CC5)C(C)C)cc4)nn23)cc1OC [Compound 146]
2. COC(=O)c1ccc(NC(=O)c2cc3nccc(-c4ccc(OC)c(OC)c4)n3n2)cc1F [Compound 141]

[reply]
< 200 nM
< 200 nM

====

Give EC50 for every item shown.
assay_system: human wild type-CFTR (Homo sapiens, UniProt P13569)
run_description: Cell-based YFP assay
Parameters: expressed in transfected cells; host or cells: CHO-K1 (Chinese hamster ovary)
study_conditions: CHO-K1 cells expressing human wild type-CFTR and YFP-H148Q/I152L; forskolin 20 μM = 100% activity; read-out: Cell-based YFP Assay (EC50) Concentration Range
Experimental: Forskolin (Tocris cat. #1099), Dimethyl sulfoxide (Sigma cat. #D4540), FLUO star Omega microplate reader (BMG Labtech, Ortenberg, Germany), MARS Data Analysis Software (BMG Labtech), GraphPad Prism 5 (GraphPad Software, Inc.) Chinese hamster ovary (CHO-K1) cells expressing human wild type-CFTR and halide sensor YFP-H148Q/I152L were constructed and grown in Dulbecco's modified Eagle's medium (DMEM) supplemented with 10% FBS, 2 mM glutamine, 100 units/ml penicillin and 100 μg/ml streptomycin. […]

>>> result("COc1ccc(-c2ccnc3cc(C(=O)Nc4ccc(C(=O)NCCO)cc4)nn23)cc1OC [Compound 53]")
"200 to 2000 nM"
>>> result("COc1ccc(-c2ccnc3cc(C(=O)N4CCN(c5ccccc5)CC4)nn23)cc1OC [Compound 152]")
"200 to 2000 nM"

Below: the item to evaluate.
[ask] Find the recorded EC50 belonging to COc1ccc(-c2ccnc3cc(C(=O)NC4CCN(C(=O)COC(C)=O)CC4)nn23)cc1OC [Compound 84] and report it.
[reply] ≥ 2000 nM
